target_or_test_system: T1, recombinant human CD70 (Flag-TNC-CD70) (human, UniProt P32970 39-193)
T1 construct: extracellular domain; Captured by anti-Flag mAb in ELISA; as 'recombinant human CD70' immobilised on Biacore CM5 chips; TNC is for trimerisation; also called recombinant CD70; human recombinant CD70; not shown: Flag tag and TNC trimerisation domain
T1 sequence (looked up): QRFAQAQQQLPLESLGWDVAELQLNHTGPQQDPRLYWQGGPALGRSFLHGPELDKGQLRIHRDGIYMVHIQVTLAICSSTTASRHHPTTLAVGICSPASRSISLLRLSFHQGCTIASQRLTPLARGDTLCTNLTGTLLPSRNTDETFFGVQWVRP
test: inhibition ELISA; Flag-TNC-CD70 captured by anti-Flag mAb; competitor CD27-Fc
value_type: IC50 (µg/mL)

| binder | value_type | measurement_unit | measured_value |
| --- | --- | --- | --- |
| 4D2 chimeric llama-human mAb (antibody, human IgG1, V domains shown) VH: QVQLQESGPGLVKPSQTLSLACTVSGGSITTSYYYWSWIRQPPGKGLEWMGAIGSRGSTYYSPSLKTRTSISRDTSKNQFTLQLSSVTPEDTAVYYCARVTGEITYNSGSYYYTLNLFDYWGQGTQVTVSS VL: QSVLTQPPSLSASPGSSVRLTCTLSSGNSVGNYDISWYQQKAGSPPRYLLYYYSDSYKNQGSGVPSRFSGSKDPSANAGLLLISGLQAEDEADYYCSVSNSGTYKPVFGGGSKLTVLG | IC50 | µg/mL | 0.254 |
| 9G2 chimeric llama-human mAb (antibody, human IgG1, V domains shown) VH: QVQLVESGGGLMQPGGSLRLSCAASGFTFSSSAMSWVRQAPGKGLEWVSSIYSDSSYTYYADSVKSRFTISTDNAKNTLYLQMNSLKPDDTAVYYCAGSSDYEGSFASWGQGTQVTVSS VL: QSVVTQPPSLSASPGSSVRLTCTLSSGNSVGNYDISWYQQKAGSPPRYLLYYYSDSVKHQGSGVPSRFSGSSDASANAGLLLISGLQPEDEADYYCSAYKSGSHVFGGGTKLTVLG | IC50 | µg/mL | 0.04 |
